Ref: the METLIN SMRT retention time set (Domingo-Almenara et al. 2019)

measurement description: gradient 5% acetonitrile 3 min, to 50% in 2 min, to 85% in 15 min, held 3 min, 100 µL/min
condition parameters: column: Zorbax Extend-C18 2.1 x 50 mm; eluents: water / acetonitrile, 0.1% formic acid
parameter measured: RP-LC retention time (s)

{"smiles structure": "Cc1ccc(-n2ccc(=O)c(-c3nc(-c4ccc5c(c4)OCO5)no3)n2)cc1", "numeric result": 893}
{"smiles structure": "CN(CC1CCOCC1)C(=O)Nc1cccc(C(F)(F)F)c1", "numeric result": 816}
{"smiles structure": "CCn1cc(-c2nc(C)c(C(=O)NCc3cc(F)cc(F)c3)s2)c2cccnc21", "numeric result": 884}

###

measurement description: gradient 5% acetonitrile 3 min, to 50% in 2 min, to 85% in 15 min, held 3 min, 100 µL/min
condition parameters: column: Zorbax Extend-C18 2.1 x 50 mm; eluents: water / acetonitrile, 0.1% formic acid
parameter measured: RP-LC retention time (s)

{"smiles structure": "Cc1ccc(Cl)c(NS(=O)(=O)c2cc3c(s2)CCN(C(=O)C2CC2)C3)c1", "unit info": "s", "numeric result": 901}
{"smiles structure": "COc1ccc(-n2ccc(=O)c(-c3nc(-c4ccccc4Br)no3)n2)cc1", "unit info": "s", "numeric result": 908}
{"smiles structure": "Cn1cc(-c2nc(C(=O)N3CCN(c4ccccc4)CC3)cs2)c2cccnc21", "unit info": "s", "numeric result": 911}

###

measurement description: gradient 5% acetonitrile 3 min, to 50% in 2 min, to 85% in 15 min, held 3 min, 100 µL/min
condition parameters: column: Zorbax Extend-C18 2.1 x 50 mm; eluents: water / acetonitrile, 0.1% formic acid
parameter measured: RP-LC retention time (s)

{"molecule": "CCc1ccc2c(c1)-c1ccccc1S(=O)(=O)N2CC(=O)NCc1ccncc1", "RP-LC retention time (s)": 703}
{"molecule": "Cn1c(N2CCCC(C(=O)NCc3ccc(Cl)cc3)C2)cc(=O)n(C)c1=O (stereo unspecified)", "RP-LC retention time (s)": 710}
{"molecule": "O=C(NC1CCCCC1)C1CCCN(c2cnc3nccnc3c2)C1 (stereo unspecified)", "RP-LC retention time (s)": 691}
{"molecule": "Cc1noc([C@@H]2CC(F)(F)CN2C(=O)c2coc(C)n2)n1", "RP-LC retention time (s)": 694}
{"molecule": "CCC(C)NC(=O)C1CCN(c2cnn(Cc3ccccc3)c(=O)c2)CC1 (stereo unspecified)", "RP-LC retention time (s)": 721}
{"molecule": "O=C(Nc1cnn(-c2ncncc2N2CCOCC2)c1)c1ccc(C(F)(F)F)cc1", "RP-LC retention time (s)": 714}
{"molecule": "Cc1nc(-c2cccnc2)nc2c1CCC(=O)N2Cc1ccco1", "RP-LC retention time (s)": 681}
{"molecule": "O=C(CN1CCc2ccccc2C1C(=O)N1CCCC1)N1CCN(c2ccccc2)CC1 (stereo unspecified)", "RP-LC retention time (s)": 696}
{"molecule": "COc1ccc2c(c1)C1(CCN(C(=O)NCc3ccc(F)cc3)C1)C(=O)N2 (stereo unspecified)", "RP-LC retention time (s)": 697}
{"molecule": "CCC(CC)NC(=O)[C@@H]1[C@H](c2cc(OC)c(OC)c(OC)c2)c2cc3c(cc2[C@H](O)[C@H]1CO)OCO3", "RP-LC retention time (s)": 692}
{"molecule": "O=C(Cc1cc(-c2ccc3c(c2)OCCO3)on1)N1CCN(C(=O)c2ccco2)CC1", "RP-LC retention time (s)": 680}
